Kindly state pest or weed control at 1000 ppm for each of the entries shown.
- System: Septoria tritici
- assay.text: Example R: in vivo test on Septoria tritici (leaf blotch in wheat/protective)
- experimental.parameters: Zymoseptoria tritici, 504 h, wheat, protective, 1000 ppm active substance, assessed 21 days after inoculation, read-out: % Wirkungsgrad (activity level)
Express your answer in %, writing the number without its unit.

Which pest or weed control at 1000 ppm reading was recorded for the molecule "COCCn1cc(-c2ccnc(NC(=O)Cc3ccccc3)c2)c(-c2ccc(F)cc2)n1" ?
71

Which pest or weed control at 1000 ppm reading was recorded for the molecule "CC(C)n1cc(-c2ccnc(NC(=O)[C@H](C)O)c2)c(-c2ccc(F)cc2)n1" ?
100

Which pest or weed control at 1000 ppm reading was recorded for the molecule CCC(C)n1cc(-c2ccnc(NC(=O)C(C)C)c2)c(-c2ccc(F)cc2)n1 (stereo not drawn) ?
100

====

- Test system: Alternaria solani
- assay.text: Example M: in vivo test on Alternaria solani (leaf blotch disease/tomato/protective)
- experimental.parameters: 168 h, tomato, protective, 500 ppm active substance, assessed 7 days after inoculation, read-out: % Wirkungsgrad (activity level)
measurement.kind: pest or weed control at 500 ppm (%)
Express your answer in %, writing the number without its unit.

Which pest or weed control at 500 ppm reading was recorded for the compound "CCC(=O)Nc1cc(-c2cn(Cc3cccc(C#N)c3)nc2-c2ccc(F)cc2)ccn1" ?
95

Which pest or weed control at 500 ppm reading was recorded for the compound "O=C(Nc1cc(-c2cn(Cc3ccccc3F)nc2-c2ccc(F)cc2)ccn1)C1CC1" ?
95

Which pest or weed control at 500 ppm reading was recorded for the compound "Fc1ccc(-c2nn(CC3OCCO3)cc2-c2ccncc2)cc1" ?
90

Which pest or weed control at 500 ppm reading was recorded for the compound "CC(C)n1cc(-c2ccnc(NC(=O)C3CCC3)c2)c(-c2ccc(F)cc2)n1" ?
94

====

- Test system: Alternaria solani
- assay.text: Example M: in vivo test on Alternaria solani (leaf blotch disease/tomato/protective)
- experimental.parameters: 168 h, tomato, protective, 500 ppm active substance, assessed 7 days after inoculation, read-out: % Wirkungsgrad (activity level)
measurement.kind: pest or weed control at 500 ppm (%)
Express your answer in %, writing the number without its unit.

Tell me reported pest or weed control at 500 ppm for "CCn1cc(-c2ccnc(NC(C)C)n2)c(-c2ccc(F)cc2)n1" , tested with Alternaria solani.
95

Tell me reported pest or weed control at 500 ppm for CCC(C)C(=O)Nc1cc(-c2cn(C)nc2-c2ccc(F)cc2)ccn1 (stereo not drawn) , tested with Alternaria solani.
95

Tell me reported pest or weed control at 500 ppm for "Fc1ccc(-c2nn(Cc3ccccc3-c3ccccc3)cc2-c2ccncc2)cc1" , tested with Alternaria solani.
78

Tell me reported pest or weed control at 500 ppm for "CCOCCn1cc(-c2ccnc(NC(=O)COC)c2)c(-c2ccc(F)cc2)n1" , tested with Alternaria solani.
95

Tell me reported pest or weed control at 500 ppm for "CC(C)n1cc(-c2ccnc(NCc3ccccc3)n2)c(-c2ccc(F)cc2)n1" , tested with Alternaria solani.
90

Tell me reported pest or weed control at 500 ppm for "COCC(=O)Nc1cc(-c2cn(Cc3ccccc3F)nc2-c2ccc(F)cc2)ccn1" , tested with Alternaria solani.
94

Tell me reported pest or weed control at 500 ppm for "CC(C)CC(=O)Nc1cc(-c2cn(C)nc2-c2ccc(F)cc2)ccn1" , tested with Alternaria solani.
95

Tell me reported pest or weed control at 500 ppm for "CC(C)=CCn1cc(-c2ccncc2)c(-c2ccc(F)cc2)n1" , tested with Alternaria solani.
90

Tell me reported pest or weed control at 500 ppm for "CC(=O)Nc1cc(-c2cn(CC(F)F)nc2-c2ccc(F)cc2)ccn1" , tested with Alternaria solani.
88

Tell me reported pest or weed control at 500 ppm for "N#CCCn1cc(-c2ccncc2)c(-c2ccc(F)cc2)n1" , tested with Alternaria solani.
100

Tell me reported pest or weed control at 500 ppm for "CCC(=O)Nc1cc(-c2cn(CC)nc2-c2ccc(F)cc2)ccn1" , tested with Alternaria solani.
93

Tell me reported pest or weed control at 500 ppm for "CC(C)n1cc(-c2ncnc3[nH]ccc23)c(-c2ccc(F)cc2)n1" , tested with Alternaria solani.
95

Tell me reported pest or weed control at 500 ppm for "CCC(=O)Nc1cc(-c2cn(CCC#N)nc2-c2ccc(F)cc2)ccn1" , tested with Alternaria solani.
100

Tell me reported pest or weed control at 500 ppm for "O=C(Nc1cc(-c2cn(CC(F)F)nc2-c2ccc(F)cc2)ccn1)C1CCC1" , tested with Alternaria solani.
88

Tell me reported pest or weed control at 500 ppm for "COCCOCC(=O)Nc1cc(-c2cn(C(C)C)nc2-c2ccc(F)cc2)ccn1" , tested with Alternaria solani.
80

Tell me reported pest or weed control at 500 ppm for "CC(C)=CCn1ncc(-c2ccncc2)c1-c1ccc(F)cc1" , tested with Alternaria solani.
90

Tell me reported pest or weed control at 500 ppm for Cc1nccc(-c2cn(C3CCCCO3)nc2-c2ccc(F)cc2)n1 (stereo not drawn) , tested with Alternaria solani.
78

Tell me reported pest or weed control at 500 ppm for CC(c1ccccc1F)n1cc(-c2ccnc(NC(=O)C3CC3)c2)c(-c2ccc(F)cc2)n1 (stereo not drawn) , tested with Alternaria solani.
90

====

- System: Aspergillus parasiticus
- assay.text: microbe, parasite or virus in culture
- Format: cell-based
- experimental.parameters: 168 h, read-out: % Inhibition des Pilzwachstums bei 50 μM
measurement.kind: inhibition at 50 µM (%)
Express your answer in %, writing the number without its unit.

Which inhibition at 50 µM reading was recorded for the molecule "CCn1cc(-c2ccnc(NC(=O)COC)c2)c(-c2ccc(F)cc2)n1" ?
100

Which inhibition at 50 µM reading was recorded for the molecule "N#CCCn1cc(-c2ccncc2)c(-c2ccc(F)cc2)n1" ?
99

Which inhibition at 50 µM reading was recorded for the molecule "CCC(=O)Nc1cc(-c2cn(CC(C)C)nc2-c2ccc(F)cc2)ccn1" ?
100

Which inhibition at 50 µM reading was recorded for the molecule "COCC(=O)Nc1cc(-c2cn(C(C)C)nc2-c2ccc(F)cc2)ccn1" ?
88

Which inhibition at 50 µM reading was recorded for the molecule "CC(C)Cn1cc(-c2ccnc(NC(=O)C(C)C)c2)c(-c2ccc(F)cc2)n1" ?
97

Which inhibition at 50 µM reading was recorded for the molecule "CC(C)C(=O)Nc1cc(-c2cn(C(C)C)nc2-c2ccc(F)cc2)ccn1" ?
98

Which inhibition at 50 µM reading was recorded for the molecule "CCC(=O)Nc1cc(-c2cn(C(C)C)nc2-c2ccc(F)cc2)ccn1" ?
98

Which inhibition at 50 µM reading was recorded for the molecule "CC(C)n1cc(-c2ccnc(NC(=O)C3CC3)c2)c(-c2ccc(F)cc2)n1" ?
97

====

Kindly state chromatographic logP for each of the entries shown.
- assay.text: physchem
- experimental.parameters: LogPA (logP of the stated pure compound or, in a mixture, of the main isomer, 1-substituted 3-aryl-1H-pyrazole)
Simply state the number, no unit and no words.

Which chromatographic logP reading was recorded for the compound Fc1ccc(-c2nn(Cc3cccc(Oc4ccccc4)c3)cc2-c2ccncc2)cc1 [Compound 138] ?
2.36

Which chromatographic logP reading was recorded for the compound CSc1nccc(-c2cn(C3CCCCO3)nc2-c2ccc(F)cc2)n1 (stereo not drawn) [Compound 74] ?
3.58

Which chromatographic logP reading was recorded for the compound Fc1ccc(-c2nn(-c3nnc(C(F)(F)F)s3)cc2-c2ccncc2)cc1 [Compound 111] ?
2.9

Which chromatographic logP reading was recorded for the compound CC(=O)OCCn1cc(-c2ccncc2)c(-c2ccc(F)cc2)n1 [Compound 145] ?
1.05

Which chromatographic logP reading was recorded for the compound CC(C)Cn1cc(-c2ccnc(NC(=O)CC3CC3)c2)c(-c2ccc(F)cc2)n1 [Compound 158] ?
3.03

Which chromatographic logP reading was recorded for the compound N#Cc1ccccc1Cn1cc(-c2ccncc2)c(-c2ccc(F)cc2)n1 [Compound 136] ?
1.49

Which chromatographic logP reading was recorded for the compound CC(C)Cn1cc(-c2ccnc(NC(=O)C3CC3)c2)c(-c2ccc(F)cc2)n1 [Compound 165] ?
2.6

Which chromatographic logP reading was recorded for the compound NC(=O)c1cc(-c2cn(C3CCCCO3)nc2-c2cccc(Cl)c2)ccn1 (stereo not drawn) [Compound 95] ?
2.93

Which chromatographic logP reading was recorded for the compound Fc1cccc(F)c1-c1nn(C2CCCC2)cc1-c1ccncc1 [Compound 16] ?
1.79

Which chromatographic logP reading was recorded for the compound Fc1ccc(-c2nn(Cc3ccccn3)cc2-c2ccncc2)cc1 [Compound 115] ?
0.99

Which chromatographic logP reading was recorded for the compound COc1ccc(-c2nn(C3CCCCO3)cc2-c2ccncc2)cc1 (stereo not drawn) [Compound 43] ?
1.24

Which chromatographic logP reading was recorded for the compound CC(C)n1cc(-c2ccncc2)c(-c2ccc(F)cc2)n1 [Compound 89] ?
1.16

Which chromatographic logP reading was recorded for the compound Fc1ccc(-c2nn(Cc3ccc(F)c(Oc4ccccc4)c3)cc2-c2ccncc2)cc1 [Compound 139] ?
2.4

Which chromatographic logP reading was recorded for the compound Fc1cccc(F)c1-c1c(-c2ccncc2)cnn1CC1CCCO1 (stereo not drawn) [Compound 27] ?
1.21

Which chromatographic logP reading was recorded for the compound Fc1ccc(-c2nn(Cc3ccc(OC(F)F)cc3)cc2-c2ccncc2)cc1 [Compound 109] ?
1.88

Which chromatographic logP reading was recorded for the compound COCCOCCn1cc(-c2ccncc2)c(-c2ccc(F)cc2)n1 [Compound 134] ?
1.04

Which chromatographic logP reading was recorded for the compound Fc1ccc(-c2nn(Cc3cccc(-c4ccccc4)c3)cc2-c2ccncc2)cc1 [Compound 125] ?
2.38

Which chromatographic logP reading was recorded for the compound Fc1ccc(-c2nn(Cc3ccccc3F)cc2-c2ccncc2)cc1 [Compound 128] ?
1.84

Which chromatographic logP reading was recorded for the compound Fc1ccc(-c2nn(C3CCCCO3)cc2-c2ccncc2)cc1 (stereo not drawn) [Compound 9] ?
1.29

Which chromatographic logP reading was recorded for the compound CC(C)Cn1cc(-c2ccncc2)c(-c2ccc(F)c(C#N)c2)n1 [Compound 154] ?
1.65

Which chromatographic logP reading was recorded for the compound COc1ccc(-c2nn(C3CCCCO3)cc2-c2ccnc(C)c2)cc1 (stereo not drawn) [Compound 73] ?
1.33

Which chromatographic logP reading was recorded for the compound CCNc1cc(-c2cn(C3CCCCO3)nc2-c2ccc(F)cc2)ncn1 (stereo not drawn) [Compound 63] ?
1.42

Which chromatographic logP reading was recorded for the compound CC(C)(C)n1cc(-c2ccncc2)c(-c2ccc(F)cc2)n1 [Compound 58] ?
2.62

Which chromatographic logP reading was recorded for the compound Fc1ccc(-c2c(-c3ccncc3)cnn2C2CCCCO2)cc1Cl (stereo not drawn) [Compound 51] ?
1.57

Which chromatographic logP reading was recorded for the compound CC(C)Cn1cc(-c2ccnc3c2CC(=O)N3)c(-c2ccc(F)cc2)n1 [Compound 147] ?
2.6

Which chromatographic logP reading was recorded for the compound CC(=O)Nc1cc(-c2cn(C(C)C)nc2-c2ccc(F)cc2)ccn1 [Compound 161] ?
1.85

Which chromatographic logP reading was recorded for the compound C=CCNc1nccc(-c2cn(CC(C)C)nc2-c2ccc(F)cc2)n1 [Compound 150] ?
2.46

Which chromatographic logP reading was recorded for the compound CC(C)n1cc(-c2ccnc(N)c2)c(-c2ccc(F)cc2)n1 [Compound 46] ?
1.18

Which chromatographic logP reading was recorded for the compound CS(=O)(=O)c1ccc(-c2c(-c3ccncc3)cnn2C2CCCCO2)cc1 (stereo not drawn) [Compound 68] ?
0.96

Which chromatographic logP reading was recorded for the compound CC(C)Cn1cc(-c2ccnc(NC(=O)C(C)C)c2)c(-c2ccc(F)cc2)n1 [Compound 87] ?
2.89

Which chromatographic logP reading was recorded for the compound CC(C)n1cc(-c2ccnc(NC(=O)C3CC3)c2)c(-c2ccc(F)cc2)n1 [Compound 86] ?
2.07

Which chromatographic logP reading was recorded for the compound Fc1cccc(F)c1-c1nn(CC2CCCO2)cc1-c1ccncc1 (stereo not drawn) [Compound 26] ?
1.16

Which chromatographic logP reading was recorded for the compound COC(=O)C(C)n1cc(-c2ccncc2)c(-c2ccc(F)cc2)n1 (stereo not drawn) [Compound 107] ?
1.2

Which chromatographic logP reading was recorded for the compound CC(C)Cn1cc(-c2ccnc3c2C(C)(C)C(=O)N3C)c(-c2ccc(F)cc2)n1 [Compound 148] ?
3.68

Which chromatographic logP reading was recorded for the compound Fc1cccc(F)c1-c1nn(CC(F)(F)F)cc1-c1ccncc1 [Compound 12] ?
1.39

Which chromatographic logP reading was recorded for the compound Fc1ccc(-c2nn(Cc3cnc(Cl)s3)cc2-c2ccncc2)cc1 [Compound 110] ?
1.54
